molecular target: human NLRP3 (Homo sapiens (Human)); assay: Human PBMC NLRP3 Assay (LPS priming, ATP stimulation, cytokine measurement); assay type: cell-based; settings: read-out: PBMC IC50
Sequence (Q96P20 whole entry): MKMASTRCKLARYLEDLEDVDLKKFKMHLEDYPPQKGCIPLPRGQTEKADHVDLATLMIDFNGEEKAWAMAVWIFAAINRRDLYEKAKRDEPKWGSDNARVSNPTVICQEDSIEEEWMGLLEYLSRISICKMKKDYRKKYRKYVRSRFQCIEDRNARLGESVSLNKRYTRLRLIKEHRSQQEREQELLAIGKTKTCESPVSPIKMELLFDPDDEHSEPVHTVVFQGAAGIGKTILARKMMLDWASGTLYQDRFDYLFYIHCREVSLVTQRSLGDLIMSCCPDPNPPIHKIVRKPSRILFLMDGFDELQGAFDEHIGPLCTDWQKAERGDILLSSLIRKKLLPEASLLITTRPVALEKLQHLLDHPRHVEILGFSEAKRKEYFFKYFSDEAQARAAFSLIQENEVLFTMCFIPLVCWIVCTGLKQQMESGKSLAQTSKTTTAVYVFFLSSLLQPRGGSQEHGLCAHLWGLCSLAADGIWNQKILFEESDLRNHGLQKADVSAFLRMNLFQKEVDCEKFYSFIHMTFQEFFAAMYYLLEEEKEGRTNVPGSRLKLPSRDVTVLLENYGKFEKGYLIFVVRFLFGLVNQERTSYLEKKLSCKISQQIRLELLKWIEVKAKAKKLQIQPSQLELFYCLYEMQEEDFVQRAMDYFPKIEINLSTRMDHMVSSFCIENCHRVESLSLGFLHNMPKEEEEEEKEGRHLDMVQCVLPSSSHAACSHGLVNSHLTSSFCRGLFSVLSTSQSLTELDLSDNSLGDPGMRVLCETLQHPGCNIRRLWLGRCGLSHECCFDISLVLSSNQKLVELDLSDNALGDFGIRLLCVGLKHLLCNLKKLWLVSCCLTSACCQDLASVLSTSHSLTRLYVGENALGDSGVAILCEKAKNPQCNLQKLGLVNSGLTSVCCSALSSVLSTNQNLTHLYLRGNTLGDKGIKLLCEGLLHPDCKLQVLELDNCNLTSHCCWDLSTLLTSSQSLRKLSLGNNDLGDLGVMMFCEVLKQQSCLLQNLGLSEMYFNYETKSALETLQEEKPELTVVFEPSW
pIC50: −log10 of the molar value.

| MOLECULE | RELATION SIGN | pIC50 |
| --- | --- | --- |
| O=C(N[C@H]1CCCN(c2ccccc2)C1)c1ccc(Cl)cc1 [Comparative Example J2, reference compound] | < | 4.00 |
| O=C(N[C@@H]1CCCN(c2ccccc2)C1)c1ccc(Cl)cc1 [Comparative Example J1, reference compound] | < | 4.00 |
| O=C(N[C@@H]1CCCN(c2nnn[nH]2)C1)c1ccc(Cl)cc1 [Comparative Example G, reference compound] | < | 4.00 |
| C[C@H]1C[C@@H](NC(=O)C2(c3ccc(Cl)cc3O)CC2)CN(c2nnn[nH]2)C1 [Compound 47A] | = | 8.17 |
| CC1(C)C[C@@H](NC(=O)C2(c3ccc(Cl)cc3O)CC2)CN(c2nnn[nH]2)C1 (single isomer, unassigned) [42A*] | = | 8.24 |
| C[C@H]1C[C@@H](NC(=O)C2(c3ccc(OC(F)(F)F)cc3O)CC2)CN(c2nnn[nH]2)C1 [Compound 17A] | = | 7.77 |
| O=C(Nc1cccc(-c2nnn[nH]2)c1)C1(c2ccc(Cl)cc2)CC1 [Comparative Example B1, reference compound] | = | 6.32 |

----------
target: UniProt:Q96P20; test: Scintillation Proximity (SPA) NLRP3 Assay: displacement of 3H-MCC950; assay type: binding; conditions: displacement of 3H-MCC950; read-out: SPA IC50
READOUT: IC50

| COMPOUND | MEASUREMENT |
| --- | --- |
| C[C@@H]1CCN(c2nnn[nH]2)C[C@@H](NC(=O)C2(c3ccc(OC(F)(F)F)c(F)c3O)CC2)C1 (single isomer, unassigned) [28B*] | 1 to 10 µM |
| C[C@@H]1CCN(c2nnn[nH]2)C[C@@H](NC(=O)C2(c3ccc(Cl)c(F)c3F)CC2)C1 (single isomer, unassigned) | 10 to 50 µM |
| C[C@H]1CCN(c2nnn[nH]2)C[C@@H](NC(=O)C2(c3ccc(OC(F)F)c(F)c3)CC2)C1 (single isomer, unassigned) [73D*] | 1 to 10 µM |
| Cc1c(Cl)ccc(C2(C(=O)N[C@@H]3C[C@H](C)CCN(c4nnn[nH]4)C3)CC2)c1O (single isomer, unassigned) [21A*] | < 1 µM |
| C[C@@H]1CCN(c2nnn[nH]2)C[C@H](NC(=O)C2(c3ccc(OC(F)F)c(F)c3)CC2)C1 (single isomer, unassigned) [73A*] | < 1 µM |
| C[C@@H]1C[C@@H](NC(=O)C2(c3ccc(SC(F)F)cc3)CC2)[C@H]2CC[C@@H]1N2c1nnn[nH]1 [85A*] | < 1 µM |
| C[C@H]1CCN(c2nnn[nH]2)C[C@@H](NC(=O)C2(c3cc(F)c(Cl)cc3O)CC2)C1 (single isomer, unassigned) [29D*] | 10 to 50 µM |
| C[C@H]1CC[C@H](NC(=O)C2(c3ccc(C4CC4)cc3O)CC2)CN(c2nnn[nH]2)C1 (single isomer, unassigned) [91B*] | < 1 µM |
| C[C@H]1CCN(c2nnn[nH]2)C[C@@H](NC(=O)C2(c3ccc(OC(F)F)cc3O)CC2)C1 (single isomer, unassigned) [70D*] | < 1 µM |
| C[C@H]1CC[C@@H](NC(=O)C2(c3ccc(C(F)(F)F)cc3O)CC2)CN(c2nnn[nH]2)C1 [89A*] | < 1 µM |
| C[C@H]1CCN(c2nnn[nH]2)C[C@@H](NC(=O)C2(c3ccc(SC(F)(F)F)cc3)CC2)C1 (single isomer, unassigned) [69D*] | 10 to 50 µM |
| C[C@H]1CCN(c2nnn[nH]2)C[C@H](NC(=O)C2(c3ccc(C4CC4)cc3)CC2)C1 (single isomer, unassigned) | 10 to 50 µM |
| Cc1ccc(C2(C(=O)N[C@H]3C[C@H](C)CCN(c4nnn[nH]4)C3)CC2)c(O)c1F (single isomer, unassigned) [22B*] | 1 to 10 µM |
| C[C@@H]1C[C@H](NC(=O)C2(c3ccc(C(F)F)cc3)CC2)[C@H]2CC[C@@H]1N2c1nnn[nH]1 [86B*] | 10 to 50 µM |
